molecular target: human recombinant PTP1B (1-302) (Homo sapiens); construct: The human recombinant PTP1B (1-302 aa) and LMW-PTP (full-length) were expressed as fusion proteins; polyhistidine (N); assay: PTP1B activity / inhibition assay (p-NPP hydrolysis); settings: secondary plot of appKM/appVmax vs PE concentration; p-NPP 0.5-25 mM; read-out: Ki (EI complex) for PTP1B
valueKind: Ki (nM)
The response must be a number in nM with no trailing unit.

Data request, read-out Ki, for CCCCCCCCCCCCCCC(OP(=O)(O)O)C(O)CCC(O)C(O)CCC(O)CCCCCCC(=O)NCC(=O)O (stereo not shown)
700

====

molecular target: human recombinant PTP1B (1-302) (Homo sapiens, UniProt P18031); construct: The human recombinant PTP1B (1-302 aa) and LMW-PTP (full-length) were expressed as fusion proteins; polyhistidine (N); assay: PTP1B activity / inhibition assay (p-NPP hydrolysis); settings: 2.5 mM p-NPP, pH 7.0, 37 °C, 8 mU PTP1B
Sequence (P18031 1-302): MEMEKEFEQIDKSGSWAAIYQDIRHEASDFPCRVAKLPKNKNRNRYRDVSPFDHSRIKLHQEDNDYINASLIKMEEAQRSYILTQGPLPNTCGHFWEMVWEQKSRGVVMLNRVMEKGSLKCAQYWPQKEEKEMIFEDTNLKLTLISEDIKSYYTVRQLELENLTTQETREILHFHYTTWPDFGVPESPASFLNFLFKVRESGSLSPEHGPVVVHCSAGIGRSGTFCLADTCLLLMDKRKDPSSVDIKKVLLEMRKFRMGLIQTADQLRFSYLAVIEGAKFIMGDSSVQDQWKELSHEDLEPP
valueKind: IC50
Be sure to follow the number with its unit.

Find IC50 (human recombinant PTP1B (1-302) (Homo sapiens, UniProt P18031)) for the entry CCCCCCCCCCCCCCC(OP(=O)(O)O)C(O)CCC(O)C(O)CCC(O)CCCCCCC(=O)NCC(=O)O (stereo not shown)
1.3 µM

====

target: human recombinant AR (Homo sapiens); assay: AR activity / inhibition assay (NADPH oxidation, L-idose as substrate); conditions: secondary plot of appKM/appVmax vs PE concentration; L-idose 0.8-6 mM; read-out: Ki (EI complex) for AR
valueKind: pKi
The meaning of pKi here: minus log10 of the concentration in molar units.

Data request, read-out pKi, for CCCCCCCCCCCCCCC(OP(=O)(O)O)C(O)CCC(O)C(O)CCC(O)CCCCCCC(=O)NCC(=O)O (stereo not shown)
4.33

====

target: human recombinant AR (Homo sapiens); construct: made in house; host or cells: E. coli BL21(DE3) pLysS; experiment: AR activity / inhibition assay (NADPH oxidation, L-idose as substrate); type: biochemical; conditions: 0.8 mM L-idose, pH 6.8, 37 °C, 10 mU AR
valueKind: IC50 (µM)
The response must be a number in µM with no trailing unit.

Data request, read-out IC50, for CCCCCCCCCCCCCCC(OP(=O)(O)O)C(O)CCC(O)C(O)CCC(O)CCCCCCC(=O)NCC(=O)O (stereo not shown)
28.7

The measured values listed here are drawn from paper PMC8540617.
